Data credit: patent US20250152547A1

EXPERIMENT NOTES: Concentration of ladostigil in plasma of rats after oral or rectal administration (LC-MS/MS)
Format: in vivo
MEASUREMENT SETUP: male, Wistar, rat, other: rectal administration, rats, rectal administration 5 mg/kg, 60 min, * significantly higher than after oral treatment p < 0.05, read-out: Concentration of ladostigil in plasma, mean ± STD (coefficient of variation)
PROPERTY NAME: concentration at 60 min

In [3]: df
Out[3]:
                             smiles_code  value_measured
0  C#CCN[C@@H]1CCc2ccc(OC(=O)N(C)CC)cc21      33.7 ng/mL
